- Tested on: Staphylococcus aureus
- Test summary: In vitro antibacterial activity against sensitive strain Staphylococcus aureus SG 511
- Format: functional
The entries below come with measured MIC values attached.
Write it as a number; the unit µg/mL goes unstated.

> print(dat)
                                   molecule  quantitative.readout
1  CC(=O)NC[C@H]1C=C(c2ccc(C(C)=O)cc2)C(=O)O1                   1.2

Lab note: next molecule to report on.
Req: May I ask what MIC has been recorded for CC(=O)NC[C@H]1CN(c2ccc(C(C)=O)cc2)C(=O)O1 [DUP-721] ?
Resp: 1.2
